- runParameters: buffer; pH 7.4; 200.0 µM
endpoint: solubility kinetic (µg/mL)
Kindly provide the numeric value in µg/mL only, without the unit symbol.

Here's what some known entries look like.
INSERT INTO measurements (molecule, displayunit, measvalue) VALUES
  ('NC(=O)C12CCCC(Br)(CCC1)C2', 'µg/mL', 36.2),
  ('Cc1ccc(C(=O)Nc2ccc3c(c2)OCCO3)c(Cl)c1', 'µg/mL', 4.3),
  ('CCOC(=O)c1cc2c(=O)c3ccccc3oc2nc1C', 'µg/mL', 2.1),
  ('CCN(CC)C(=O)CSc1ncnc2sc(C)c(C)c12', 'µg/mL', 43.4),
  ('Cc1cc(O)c(C(=O)Cc2csc(C)n2)c(O)c1', 'µg/mL', 4.1);

For the molecule shown here, CCCCC(=O)OCC(=O)c1[nH]c(C)c(C(C)=O)c1C , give the reported solubility kinetic.
36.9

For the molecule shown here, CCCCNC(=O)C1CCC(CNc2nc(=S)[nH]c3ccccc23)CC1 (centres undefined) , give the reported solubility kinetic.
2.6

---

- runParameters: buffer; pH 7.4; 200.0 µM
Measured solubility kinetic by item

INSERT INTO measurements (molecule, endpoint, measvalue) VALUES
  ('O=C(NC1CCS(=O)(=O)C1)c1sc2ccccc2c1Cl (stereo not drawn)', 'solubility kinetic', '12.2 µg/mL'),
  ('COc1cc(C)ccc1S(=O)(=O)NC1CC(C)(C)NC(C)(C)C1', 'solubility kinetic', '35 µg/mL'),
  ('Cc1ccc(CNc2cc(C(=O)O)ccc2Cl)s1', 'solubility kinetic', '> 42.3 µg/mL');

For the molecule shown here, Cc1ccccc1OCC(=O)NCCCNC(=O)c1ccccn1 , give the reported solubility kinetic.
> 49.1 µg/mL

For the molecule shown here, COc1ccc(N2CCN(CC(=O)c3c[nH]c4ccccc34)CC2)cc1 , give the reported solubility kinetic.
1.9 µg/mL

For the molecule shown here, Br.CN(C)C1=NCC(CSC(=N)N)S1 (stereo not drawn) , give the reported solubility kinetic.
32.5 µg/mL

---

- runParameters: buffer; pH 7.4; 200.0 µM
Returns one of fulfilled or not fulfilled; fulfilled when solubility kinetic is >= 40 µg/mL.

Take a look at these entries with their results.
INSERT INTO measurements (molecule, assignedlabel) VALUES
  ('CCCN(CCC)C(=O)CC(c1ccccc1)C1CCOC(C)(C)C1 (configuration not stated)', 'fulfilled'),
  ('O=C(Nc1nc2cc3c(cc2s1)OCCO3)c1ccco1', 'not fulfilled'),
  ('Cc1cc(OCC(=O)N2CCN(CC(=O)N3CCOCC3)CC2)c(C(C)C)cc1Cl', 'fulfilled'),
  ('Cc1ccc(C(C)C)c(OCC(=O)NC2CCN(C)CC2)c1', 'fulfilled');

Identify whether the reported solubility kinetic of the following molecule is 40 µg/mL or greater: Cc1cc(Br)ccc1OCC(=O)NC1CCCC1
not fulfilled

Identify whether the reported solubility kinetic of the following molecule is 40 µg/mL or greater: COc1ccc(C2c3ccsc3CCN2C(=O)NC(C)(C)C)cc1 (configuration not stated)
not fulfilled

Identify whether the reported solubility kinetic of the following molecule is 40 µg/mL or greater: COc1ccc(CCNC(=O)Cc2ccc(C)cc2)cc1OC
fulfilled

Identify whether the reported solubility kinetic of the following molecule is 40 µg/mL or greater: CCCC/C(O)=C1\C(=O)CC(C)(C)CC1=NCCCCCC(=O)O
fulfilled

Identify whether the reported solubility kinetic of the following molecule is 40 µg/mL or greater: CS(=O)(=O)Cc1ccc(C(=O)N2CCN(C(=O)c3cccs3)CC2)cc1
fulfilled

Identify whether the reported solubility kinetic of the following molecule is 40 µg/mL or greater: O=C(NCc1ccc2c(c1)OCO2)c1sccc1Br
fulfilled

---

- runParameters: buffer; pH 7.4; 200.0 µM
Returns one of 1 or -1; 1 when solubility kinetic is >= 30 µg/mL.

Take a look at these entries with their results.
INSERT INTO assay_data (compound, assignedlabel) VALUES
  ('CC(Sc1cccc[n+]1[O-])c1ccccc1 (stereo not given)', 1),
  ('O=C(COC(=O)c1ccccc1)NCCC1=CCCCC1', -1),
  ('O=S(=O)(Nc1ccon1)c1ccc(Br)cc1', 1),
  ('CC(C)On1c(SCC(=O)N(C)C)nc2ccccc2c1=O', 1),
  ('Fc1ccccc1NC(=S)NCCc1ccc(Cl)cc1', 1);

Turning now to a further record.
Identify whether the reported solubility kinetic of the following compound is 30 µg/mL or greater: O=[N+]([O-])c1ccc(C(O)C[n+]2ccccc2)cc1.[I-] (stereo not given)
1

---

Measured solubility kinetic by item
- runParameters: buffer; pH 7.4; 200.0 µM
Kindly provide the numeric value in µg/mL only, without the unit symbol.

INSERT INTO measurements (compound, displayunit, measvalue) VALUES
  ('COc1cc(/C=C(\C#N)C(N)=O)ccc1OCc1c(C)no[n+]1[O-]', 'µg/mL', 14.6),
  ('COc1cccc(/C=C(\CC(=O)O)c2nc3ccccc3s2)c1', 'µg/mL', 41.1),
  ('Nc1ccccc1SC1CC(=O)N(c2ccc3c(c2)OCCO3)C1=O (stereo unspecified)', 'µg/mL', 0.9);

For the compound shown here, Fc1cc(F)nc(NCc2ccccc2)n1 , give the reported solubility kinetic.
12.2

For the compound shown here, COc1cc([N+](=O)[O-])ccc1NC(=O)Nc1cnccn1 , give the reported solubility kinetic.
0.8

For the compound shown here, O=C(COC(=O)c1ccc2c(c1)OCO2)Nc1ccccc1Cl , give the reported solubility kinetic.
3.5

---

Measured solubility kinetic by item
- runParameters: buffer; pH 7.4; 200.0 µM
Kindly provide the numeric value in µg/mL only, without the unit symbol.

INSERT INTO results (compound, endpoint, measvalue) VALUES
  ('Cc1ccc(S(=O)(=O)N2CCCCC2)cc1', 'solubility kinetic', 20),
  ('O=C(C[n+]1ccncc1)c1ccccc1.[Br-]', 'solubility kinetic', 6.4),
  ('Nc1nc(Nc2ccc(Cl)cc2)nc(NCc2ccco2)c1[N+](=O)[O-]', 'solubility kinetic', 1),
  ('Cc1ccn2cc(-c3cc4ccccc4oc3=O)nc2c1', 'solubility kinetic', 3.1),
  ('Cc1cc(C(=O)OCC(=O)Nc2nccs2)c2ccccc2n1', 'solubility kinetic', 6.8),
  ('Cl.c1ccc(CCNCc2cccs2)cc1', 'solubility kinetic', 32.6),
  ('CC1(C)C(=O)OC(c2ccc([N+](=O)[O-])cc2)C(C)(C)C1=O (stereo not given)', 'solubility kinetic', 2.5),
  ('CCOC(=O)C(C)Oc1ccc(NC(=O)C(Cl)(Cl)Cl)cc1 (stereo not given)', 'solubility kinetic', 51.1);

Proceed to the following item.
For the compound shown here, CC(=O)c1ccc(NC(=O)CNC2CCCCC2)cc1.Cl , give the reported solubility kinetic.
38.4

---

- runParameters: buffer; pH 7.4; 200.0 µM
Measured solubility kinetic by item
Kindly provide the numeric value in µg/mL only, without the unit symbol.

INSERT INTO measurements (molecule, measvalue) VALUES
  ('CCCNc1nc(Cl)nc(NCc2cccnc2)n1', 33.5);

For the molecule shown here, COc1ccc(CNC2CCCc3ccccc32)c(OC)c1 (configuration not stated) , give the reported solubility kinetic.
31.4

For the molecule shown here, COc1ccc(C2CC(=O)NC(=O)C2)cc1 , give the reported solubility kinetic.
22.3

For the molecule shown here, COc1ccc(CNC(=O)COC(=O)c2cc(C)nc3ccccc23)cc1 , give the reported solubility kinetic.
18.3

For the molecule shown here, CC(C)(C)c1ccc(S(=O)(=O)NCC2CCCO2)cc1 (configuration not stated) , give the reported solubility kinetic.
34.9

For the molecule shown here, Cc1cccn2c(=O)c3cc(C(=O)NC4CCCCC4)c(=N)n(CCN4CCOCC4)c3nc12 , give the reported solubility kinetic.
52.2

For the molecule shown here, Cc1ccc(NC(=O)C2CCCN(c3ncccn3)C2)cc1C (configuration not stated) , give the reported solubility kinetic.
2.1

For the molecule shown here, O=C(Nc1ccccc1C(=O)NC1CC1)c1ccccc1F , give the reported solubility kinetic.
44.6

---

- runParameters: buffer; pH 7.4; 200.0 µM
endpoint: solubility kinetic (µg/mL)
Kindly provide the numeric value in µg/mL only, without the unit symbol.

INSERT INTO measurements (compound, endpoint, measvalue) VALUES
  ('Cc1cc(C)c2nc(C)cc(Nc3ccc(C(=O)N(C)C)cc3)c2c1', 'solubility kinetic', 5.6),
  ('N#Cc1ccc(-c2ccc(OCC3CNC(=O)O3)cc2)cc1 (stereo not given)', 'solubility kinetic', 11.3),
  ('O=C(CC1CCCCC1)NCc1ccc(Cl)cc1', 'solubility kinetic', 2.4),
  ('Cc1cccc(NC(=O)CN(C)C(=O)c2ccc(N3CCCCCC3)c([N+](=O)[O-])c2)c1C', 'solubility kinetic', 11.4),
  ('Cc1c(N=Cc2cc3c(cc2[N+](=O)[O-])OCO3)cccc1[N+](=O)[O-]', 'solubility kinetic', 6.5),
  ('N#CCNC(=O)C1c2ccccc2Oc2ccccc21', 'solubility kinetic', 4.1),
  ('O=C(COC(=O)c1cc(F)cc(F)c1)Nc1cccnc1Cl', 'solubility kinetic', 10.9),
  ('CCCCCCn1cc(C(=O)OCC)c(=O)c2cc(F)c(F)cc21', 'solubility kinetic', 43.6),
  ('COc1ccc(C(=O)Nc2ccc3ccccc3n2)cc1OC', 'solubility kinetic', 0.7),
  ('CCOC(=O)C1(C)Oc2cccnc2NC1=O (stereo not given)', 'solubility kinetic', 35.2);

For the compound shown here, Cc1ccnc(NC(=O)CNC(=O)c2ccccc2Br)c1 , give the reported solubility kinetic.
48.5

For the compound shown here, OCCNc1nc(-c2ccccc2)c2cc(Br)ccc2n1 , give the reported solubility kinetic.
24.2
